Below, each of the molecules is paired with its reported NF-κB activity (multiple) value.
Test system: NF-kB
procedure_text: NF-kB activation suppressive action in muscle cell (luciferase reporter, TNF-α induced)
Format: cell-based, mouse
study_conditions: 0.003 μM compound, TNF-α 10 ng/mL; activity without TNF-α = 1; n=8

molecule	unit_label	NF-κB activity (multiple)
O=C(/C=C/c1cnccc1-c1ccc(F)cc1)Nc1ccc(Cn2ccnc2)cc1 [Example 9]	multiple	13.0
CCOP(=O)(Cc1ccc(NC(=O)/C=C/c2cnccc2-c2ccccc2)cc1)OCC [Example 11]	multiple	10.8
O=C(/C=C/c1cnccc1-c1ccc(F)cc1)Nc1ccc(Cn2cnc3ccccc32)cc1 [Example 8]	multiple	9.7
O=C(/C=C/c1cnccc1-c1ccc(F)cc1)Nc1ccc(OCc2nnco2)cc1 [Example 10]	multiple	10.2
O=C(/C=C/c1cnccc1-c1ccc(F)cc1)Nc1ccc(CCc2nnco2)cc1 [Example 1]	multiple	13.4

###

System: NF-kB
procedure_text: NF-kB activation suppressive action in muscle cell (luciferase reporter, TNF-α induced)
Format: cell-based, mouse
study_conditions: 10 μM compound, TNF-α 10 ng/mL; activity without TNF-α = 1; n=8
Source text: […]
Attribute: NF-κB activity (multiple)
property_label: NF-κB activity (multiple)

compound	assay_value
O=C(/C=C/c1cnccc1-c1ccc(F)cc1)Nc1ccc(Cn2ccnc2)cc1 [Example 9]	6.9
O=C(/C=C/c1cnccc1-c1ccc(F)cc1)Nc1ccc(Cn2cnc3ccccc32)cc1 [Example 8]	6.1
O=C(/C=C/c1cnccc1-c1ccc(F)cc1)Nc1ccc(CCc2nnco2)cc1 [Example 1]	9.0
O=C(/C=C/c1cnccc1-c1ccc(F)cc1)Nc1ccc(OCc2nnco2)cc1 [Example 10]	6.2
CCOP(=O)(Cc1ccc(NC(=O)/C=C/c2cnccc2-c2ccccc2)cc1)OCC [Example 11]	5.2
